system: Enterococcus faecalis 28; assay: microbe, parasite or virus in culture; assay type: cell-based; settings: 28, 16 h
Numbered stars: 1 amine (or outer) side, 2 acyl side, 3 side chain; on linkers, the order of the positions; unused ones are H or OH. Bridge positions count the residues as written; N and C are the ends. Square brackets hold non-standard residues; d marks the D form. Peptide text beside a SMILES is read from it. * marks the point of attachment. X3 = CCCCC[C@H](CC(=O)[*:1])O[*:2]; Myristoyl = CCCCCCCCCCCCCC(=O)*; X2 = NC[C@H](Cc1ccc(O)cc1)N*; dOrn = NCCC[C@@H](N)C(=O)O; X1 = CC(C)[C@H](O)CC(=O)*; Orn = NCCC[C@H](N)C(=O)O; Dab = NCC[C@H](N)C(=O)O; Dap = NC[C@H](N)C(=O)O; βAla = NCCC(=O)O
metric name: MIC Enterococcus faecalis 28

// below: answered compounds
compound	test value
CCCCCCCCCCCCCC(=O)N[C@@H](CCCN)C(=O)N[C@H](Cc1ccc(O)cc1)C(=O)N[C@@H](C(=O)N[C@H]1C(=O)N[C@H](CCCN)C(=O)N[C@@H](CCCN)C(=O)N[C@H](C(C)C)C(=O)N[C@@H]([C@@H](C)CC)C(=O)N[C@@H](CC(C)C)C(=O)N[C@H](CCCN)C(=O)N[C@@H]([C@@H](C)O)C(=O)N[C@@H](C)C(=O)O[C@H]1C)C(C)C [synAQU6-C4] (Myristoyl-[Orn][dY][dV][dT][dOrn][Orn][dV]IL[dOrn]TA; ester 4-C)	> 64 µg/mL
CC[C@H](C)[C@H](NC(=O)[C@@H](NC(=O)[C@@H](C)NC(=O)[C@H](C)NC(=O)[C@@H](NC(=O)C[C@@H](O)C(C)C)C(C)C)[C@@H](C)CC)C(=O)NCCC(=O)N[C@@H](CC(C)C)C(=O)N[C@H](C)C(=O)N[C@H](C(=O)N[C@H](CN)Cc1ccc(O)cc1)[C@@H](C)CC [synAQU4-L] (X1-VA[dA]II[βAla]L[dA]I-X2)	> 64 µg/mL
CCCCCCCCCCCCCC(=O)N[C@@H](CCCN)C(=O)N[C@H](Cc1ccc(O)cc1)C(=O)N[C@@H](C(=O)N[C@@H](C(=O)N[C@H](CCCN)C(=O)N[C@@H](CCCN)C(=O)N[C@@H](C(=O)N[C@H](C(=O)N[C@@H](CC(C)C)C(=O)N[C@H](CCCN)C(=O)N[C@H](C(=O)N[C@@H](C)C(=O)O)[C@@H](C)O)[C@@H](C)CC)C(C)C)[C@H](C)O)C(C)C [synAQU6-L] (Myristoyl-[Orn][dY][dV][dT][dOrn][Orn][dV]IL[dOrn]TA-OH)	> 64 µg/mL

Q: Answer with reported MIC Enterococcus faecalis 28 of CCCCCCCCCCCCCC(=O)N[C@@H](CN)C(=O)N[C@H](C(=O)N[C@@H](CC(C)C)C(=O)N[C@@H](CO)C(=O)N[C@@H](CCN)C(=O)N[C@@H](CN)C(=O)N[C@@H](Cc1ccccc1)C(=O)N[C@H](C(=O)N[C@@H](CCCN)C(=O)N[C@@H](CC(N)=O)C(=O)N[C@@H](Cc1ccccc1)C(=O)O)[C@@H](C)CC)[C@@H](C)O [synAQU5-L] (Myristoyl-[Dap]TLS[Dab][Dap]FI[Orn]NF-OH)
Result: 16 µg/mL

Q: Answer with reported MIC Enterococcus faecalis 28 of CCCCC[C@@H]1CC(=O)N[C@@H](CN)C(=O)N[C@@H](Cc2ccccc2)C(=O)N[C@@H](CCN)C(=O)N[C@@H]([C@@H](C)O)C(=O)N[C@H](Cc2ccccc2)C(=O)N[C@@H](CN)C(=O)N[C@H](CC(C)C)C(=O)N[C@@H](C(C)C)C(=O)N[C@@H](CC(=O)O)C(=O)O1 [synAQU3-cFA] ([Dap]F[Dab]T[dF][Dap][dL]VD; linker N-C via X3)
Result: > 64 µg/mL

Q: Answer with reported MIC Enterococcus faecalis 28 of CCCCCCCCCCCCCC(=O)N[C@@H](CN)C(=O)N[C@H](C(=O)N[C@@H](CC(C)C)C(=O)N[C@H]1COC(=O)[C@H](Cc2ccccc2)NC(=O)[C@H](CC(N)=O)NC(=O)[C@H](CCCN)NC(=O)[C@H]([C@@H](C)CC)NC(=O)[C@H](Cc2ccccc2)NC(=O)[C@H](CN)NC(=O)[C@H](CCN)NC1=O)[C@@H](C)O [synAQU5-C4] (Myristoyl-[Dap]TLS[Dab][Dap]FI[Orn]NF; ester 4-C)
Result: 4 µg/mL

Q: Answer with reported MIC Enterococcus faecalis 28 of CCCCCCCCCCCCCC(=O)N[C@@H](Cc1ccccc1)C(=O)N[C@@H](CCCN)C(=O)N[C@H]1CCCNC(=O)CNC(=O)[C@H](CCN)NC(=O)[C@@H](Cc2ccc(O)cc2)NC(=O)[C@H](CC(C)C)NC(=O)[C@H]([C@@H](C)CC)NC(=O)[C@@H](C(C)C)NC1=O [synAQU2-C3] (Myristoyl-F[Orn][Orn][dV]IL[dY][Dab]G; lactam 3-C)
Result: > 64 µg/mL

====

tested on: Streptococcus pyogenes ATCC 19615; assay: microbe, parasite or virus in culture; assay type: cell-based; settings: ATCC 19615, 16 h
Bridge positions count the residues as written; N and C are the ends. Square brackets hold non-standard residues; d marks the D form. Peptide text beside a SMILES is read from it. * marks the point of attachment. Octanoyl(3R-OH) = CCCCC[C@@H](O)CC(=O)*; Myristoyl = CCCCCCCCCCCCCC(=O)*; Dab = NCC[C@H](N)C(=O)O; Dap = NC[C@H](N)C(=O)O
Recorded MIC (μg/mL) S. pyogenes ATCC 19615 for the following molecules

molecule	test target	test value
CCCCC[C@@H](O)CC(=O)N[C@@H](CN)C(=O)N[C@@H](Cc1ccccc1)C(=O)N[C@H]1CCNC(=O)[C@H](CC(=O)O)NC(=O)[C@H](C(C)C)NC(=O)[C@@H](CC(C)C)NC(=O)[C@H](CN)NC(=O)[C@@H](Cc2ccccc2)NC(=O)[C@H]([C@@H](C)O)NC1=O [synAQU3-C3] ({Octanoyl(3R-OH)}-[Dap]F[Dab]T[dF][Dap][dL]VD; lactam 3-C (inferred))	Streptococcus pyogenes ATCC 19615	> 64 µg/mL
CCCCCCCCCCCCCC(=O)N[C@@H](CCCCN)C(=O)N[C@@H](CCCNC(=N)N)C(=O)N[C@@H](CC(C)C)C(=O)N[C@@H](C)C(=O)N[C@@H](CC(C)C)C(=O)N[C@H](C(=O)N[C@@H](CC(=O)O)C(=O)N[C@@H](CC(=O)O)C(=O)N[C@H](C(=O)N[C@@H](CC(N)=O)C(=O)N[C@H](C(=O)N[C@H](Cc1ccccc1)C(=O)N[C@@H](CC(N)=O)C(=O)O)C(C)C)C(C)C)[C@@H](C)O [synAQU7-L] (Myristoyl-KRLALTDDVNV[dF]N-OH)	Streptococcus pyogenes ATCC 19615	> 64 µg/mL

Q: Answer with reported MIC (μg/mL) S. pyogenes ATCC 19615 of CCCCCCCCCCCCCC(=O)N[C@@H](CCCCN)C(=O)N[C@@H](CCCNC(=N)N)C(=O)N[C@@H](CC(C)C)C(=O)N[C@@H](C)C(=O)N[C@@H](CC(C)C)C(=O)N[C@@H]1C(=O)N[C@@H](CC(=O)O)C(=O)N[C@@H](CC(=O)O)C(=O)N[C@@H](C(C)C)C(=O)N[C@@H](CC(N)=O)C(=O)N[C@@H](C(C)C)C(=O)N[C@H](Cc2ccccc2)C(=O)N[C@@H](CC(N)=O)C(=O)O[C@@H]1C [synAQU7-C6] (Myristoyl-KRLALTDDVNV[dF]N; ester 6-C)
Result: > 64 µg/mL

====

test system: Klebsiella pneumoniae CRKP HS11286; assay: microbe, parasite or virus in culture; type: cell-based; details: CRKP HS11286, 16 h
Bridge positions count the residues as written; N and C are the ends. Square brackets hold non-standard residues; d marks the D form. Peptide text beside a SMILES is read from it. * marks the point of attachment. Myristoyl = CCCCCCCCCCCCCC(=O)*; dOrn = NCCC[C@@H](N)C(=O)O; Orn = NCCC[C@H](N)C(=O)O; Dab = NCC[C@H](N)C(=O)O; Dap = NC[C@H](N)C(=O)O
Recorded MIC Klebsiella pneumoniae CRKP HS11286 for the following molecules
Number in µg/mL, nothing else.

molecule	unit text	MIC Klebsiella pneumoniae CRKP HS11286
CCCCCCCCCCCCCC(=O)N[C@@H](CN)C(=O)N[C@H](C(=O)N[C@@H](CC(C)C)C(=O)N[C@H]1COC(=O)[C@H](Cc2ccccc2)NC(=O)[C@H](CC(N)=O)NC(=O)[C@H](CCCN)NC(=O)[C@H]([C@@H](C)CC)NC(=O)[C@H](Cc2ccccc2)NC(=O)[C@H](CN)NC(=O)[C@H](CCN)NC1=O)[C@@H](C)O [synAQU5-C4] (Myristoyl-[Dap]TLS[Dab][Dap]FI[Orn]NF; ester 4-C)	µg/mL	32

Q: Answer with reported MIC Klebsiella pneumoniae CRKP HS11286 of CCCCCCCCCCCCCC(=O)N[C@@H](CCCN)C(=O)N[C@H](Cc1ccc(O)cc1)C(=O)N[C@@H](C(=O)N[C@H]1C(=O)N[C@H](CCCN)C(=O)N[C@@H](CCCN)C(=O)N[C@H](C(C)C)C(=O)N[C@@H]([C@@H](C)CC)C(=O)N[C@@H](CC(C)C)C(=O)N[C@H](CCCN)C(=O)N[C@@H]([C@@H](C)O)C(=O)N[C@@H](C)C(=O)O[C@H]1C)C(C)C [synAQU6-C4] (Myristoyl-[Orn][dY][dV][dT][dOrn][Orn][dV]IL[dOrn]TA; ester 4-C)
Result: 32

Data provenance: paper PMC12677607
